- Tested on: sicklepod (Cassia obtusifolia, CASOB)
- Experiment summary: Post-emerge test, greenhouse herbicide activity screening
- Format: in vivo
- Recorded conditions: 250 g ai/ha; post-emerge; 14 days after application; rating scale 0-100
Field: Post-emerge Herbicidal Activity CASOB (phytotoxicity rating). Provide a value for each of the compounds that follow.
One number for each entry.

Compound	Observed
COc1c(Cl)cc(F)c(-n2c(=O)cc(C(F)(F)F)n(C)c2=O)c1NN=C(C)C	100
COc1c(Cl)cc(F)c(-n2c(=O)cc(C(F)(F)F)n(C)c2=O)c1NNC(=O)c1ccccc1	100
COc1c(Cl)cc(F)c(-n2c(=O)cc(C(F)(F)F)n(C)c2=O)c1Sc1ccc2ccccc2c1	20
CCOC(=O)NNc1c(OC)c(Cl)cc(F)c1-n1c(=O)cc(C(F)(F)F)n(C)c1=O	70

Look up Post-emerge Herbicidal Activity CASOB (phytotoxicity rating) for the entries below, preserving their order.
1. CCOC(=O)N(C)C(=O)NNc1c(OC)c(Cl)cc(F)c1-n1c(=O)cc(C(F)(F)F)n(C)c1=O
2. COCC(C)=NNc1c(OC)c(Cl)cc(F)c1-n1c(=O)cc(C(F)(F)F)n(C)c1=O

1: 60; 2: 100

# per-item lookup of Post-emerge Herbicidal Activity CASOB (phytotoxicity rating); items listed below
1. CCOC(=O)C(Cl)Cc1c(OC)c(Cl)cc(F)c1-c1nn(C)c(C(F)(F)F)c1Cl (centres unmarked)
2. CCCOC(=O)C(Cl)Cc1c(OCC)c(Cl)cc(F)c1-n1c(=O)cc(C(F)(F)F)n(C)c1=O (centres unmarked)

40
100

* * *

- System: upland rice (Oryza sp., var. Tebonnet, RICE)
- Experiment summary: Post-emerge test, crop safety
- Assay type: in vivo
- Recorded conditions: Rate 63 g ai/ha; rating scale 0-100 (0 no damage, 100 complete death); 14 days after application
Value type: Post-emerge phytotoxicity rating RICE (crop damage)

Some solved cases for reference:
Compound	Observed
COc1c(Cl)cc(F)c(-n2c(=O)cc(C(F)(F)F)n(C)c2=O)c1CC(Cl)C(=O)OCC(Br)CBr (single isomer, unassigned) [14-31]	0
CCCOC(=O)C(C)(Cl)Cc1c(OC)c(Cl)cc(F)c1-n1c(=O)cc(C(F)(F)F)n(C)c1=O (stereo not shown)	80
C#CCOC(=O)C(Cl)Cc1c(OC)c(Cl)cc(F)c1-n1c(=O)cc(C(F)(F)F)n(C)c1=O (single isomer, unassigned) [14-20]	0
C=CCOC(=O)C(C)(Cl)Cc1c(OC)c(Cl)cc(F)c1-n1c(=O)cc(C(F)(F)F)n(C)c1=O (stereo not shown)	95
CCOC(=O)C(Cl)(CC(=O)OC)Cc1c(OC)c(Cl)cc(F)c1-n1c(=O)cc(C(F)(F)F)n(C)c1=O (stereo not shown)	30
COc1c(Cl)cc(F)c(-n2c(=O)cc(C(F)(F)F)n(C)c2=O)c1CC(C)(Cl)C(=O)OCc1ccccc1 (stereo not shown)	20

Now for a further compound.
Which Post-emerge phytotoxicity rating RICE (crop damage) is listed for CCOC(=O)C(C)(Cl)Cc1c(OC)c(Cl)cc(F)c1-n1c(=O)cc(C(F)(F)F)n(C)c1=O (stereo not shown) ?
25

* * *

- System: sicklepod (Cassia obtusifolia, CASOB)
- Experiment summary: Pre-emerge test, greenhouse herbicide activity screening
- Format: in vivo
- Recorded conditions: 250 g ai/ha; rated 14 days after application; 0 = no damage, 100 = complete death
Field: Pre-emerge Herbicidal Activity, phytotoxicity rating (0-100), CASOB. Provide a value for each of the compounds that follow.
One number for each entry.

Compound	Observed
COc1c(Cl)cc(F)c(-n2c(=O)cc(C(F)(F)F)n(C)c2=O)c1NC(=O)c1ccc(Cl)cc1 [2-56]	100
COc1c(Cl)cc(F)c(-n2c(=O)cc(C(F)(F)F)n(C)c2=O)c1NC(=O)c1cccc2ccccc12 [2-74]	70

# return Pre-emerge Herbicidal Activity, phytotoxicity rating (0-100), CASOB for each item in the list
1. COc1c(Cl)cc(F)c(-n2c(=O)cc(C(F)(F)F)n(C)c2=O)c1NC(=O)c1ccc(CCl)cc1 [2-36]
2. COc1c(Cl)cc(F)c(-n2c(=O)cc(C(F)(F)F)n(C)c2=O)c1NC(=O)c1ccc(OC(F)(F)F)cc1 [2-72]
3. Cn1c(C(F)(F)F)cc(=O)n(-c2c(F)cc(Cl)c(OCC#N)c2N(C(=O)c2ccc(F)cc2F)C(=O)c2ccc(F)cc2F)c1=O [2-45]
4. COc1ccc(C(=O)Nc2c(OC)c(Cl)cc(F)c2-n2c(=O)cc(C(F)(F)F)n(C)c2=O)cc1 [2-63]
5. Cc1c(Cl)cc(F)c(-n2c(=O)cc(C(F)(F)F)n(C)c2=O)c1NC(=O)c1ccc2ccccc2c1 [Compound 2-122]
6. COc1c(Cl)cc(F)c(-n2c(=S)cc(C(F)(F)F)n(C)c2=O)c1NC(=S)c1ccc(F)cc1F [2-46]

1. 70
2. 90
3. 0
4. 100
5. 50
6. 100

The following compounds each have a reported value; give each one's Pre-emerge Herbicidal Activity, phytotoxicity rating (0-100), CASOB.
1. Cn1c(C(F)(F)F)cc(=O)n(-c2c(F)cc(Cl)c(OCC#N)c2NC(=O)CCc2ccccc2)c1=O [2-87]
2. Cn1c(C(F)(F)F)cc(=O)n(-c2c(F)cc(Cl)c(O)c2NC(=O)c2ncccn2)c1=O [2-102]
3. COc1c(Cl)cc(F)c(-n2c(=O)cc(C(F)(F)F)n(N)c2=O)c1NC(=O)c1ccc2ccccc2c1 [2-77]
4. COc1c(Cl)cc(F)c(-n2c(=O)cc(C(F)(F)F)n(C)c2=O)c1NC(=O)c1c(F)cccc1F [2-47]
5. COc1c(Cl)cc(F)c(-n2c(=O)cc(C(F)(F)F)n(C)c2=O)c1NC(=O)C(C)=Cc1ccccc1 [2-81]
6. COc1c(Cl)cc(F)c(-n2c(=O)cc(C(F)(F)F)n(C)c2=O)c1NC(=O)c1ccc(C(F)(F)F)cc1 [2-33]
7. COc1c(Cl)cc(F)c(-n2c(=O)cc(C(F)(F)F)n(C)c2=O)c1NC(=O)c1ccc(C)c(C)c1 [2-32]

100
0
30
100
100
100
100

Identify the measured Pre-emerge Herbicidal Activity, phytotoxicity rating (0-100), CASOB of COc1c(Cl)cc(F)c(-n2c(=O)cc(C(F)(F)F)n(C)c2=O)c1NC(=O)COCc1ccccc1 [2-89] for sicklepod (Cassia obtusifolia, CASOB).
100
